Experiment: Phase 1 MAD (Part B) plasma pharmacokinetics in healthy subjects
Assay type: in vivo, human
Conditions: both sexes, human, plasma, oral, 100 mg, plasma, Day 10 (morning dose), 100 mg BID, n = 6; read-out: AUC0-12,ss, mean (SD)
experimental.endpoint: AUC(0-t) (ng·h/mL)
Give the number; ng·h/mL is assumed, so skip it.

Given the compound `CN(C)C/C=C/C(=O)N1CC(COc2cc(-c3ccc(O)cc3)cc3[nH]ncc23)C1` , write its reported AUC(0-t).
8.9

###

Assay: Phase 1 MAD (Part B) plasma pharmacokinetics in healthy subjects
Type: in vivo, human
Details: human, plasma, oral, 300 mg, plasma, Day 1 (morning dose), 300 mg BID, n = 6; read-out: Cmax, mean (SD)
experimental.endpoint: Cmax (ng/mL)
Give the number; ng/mL is assumed, so skip it.

Given the compound `CN(C)C/C=C/C(=O)N1CC(COc2cc(-c3ccc(O)cc3)cc3[nH]ncc23)C1` , write its reported Cmax.
2.6
